# assay_system: T1, PUF4 RNA-binding domain (Saccharomyces cerevisiae, UniProt P25339 537-888)
# T1 sequence: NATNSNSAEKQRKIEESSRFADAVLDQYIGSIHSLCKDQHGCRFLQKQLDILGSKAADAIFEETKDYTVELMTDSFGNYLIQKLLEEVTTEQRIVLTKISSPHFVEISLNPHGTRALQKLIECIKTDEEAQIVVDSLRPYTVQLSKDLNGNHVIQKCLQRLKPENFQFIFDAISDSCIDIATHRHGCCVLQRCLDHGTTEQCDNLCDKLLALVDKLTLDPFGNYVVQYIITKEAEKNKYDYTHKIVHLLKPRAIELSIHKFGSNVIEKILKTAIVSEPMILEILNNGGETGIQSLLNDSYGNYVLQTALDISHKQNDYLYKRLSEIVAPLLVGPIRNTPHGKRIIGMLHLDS
# assay_details: Mg; RNA-MaP; 20 mM Na-HEPES pH 7.4, 30 mM KOAc, 0.75 mM MgCl2, 0.1% Tween-20, 5% glycerol, 0.1 mg/mL BSA, 2 mM DTT; 25 C; 0.0125-409.6 nM protein
# condition_info: tags: N-His6-TEV cleaved; C-SNAP kept, Cy3B-labelled; label: tethered on chip by stalled RNA polymerase
pKd: −log10 of the molar value.
Cut-off 9 on pKd, inclusive. At or above means Y; below means N.

{"columns": ["binder", "category_label"],
 "data": [
  ["UCUCUUUGUUCUAUAUUAUCUCUU (ssRNA) [Ie_S1_P4E.1_K4.1_C4.1_H4.1_[+3TCT]_A4.1_F4.1_T4.1]", "N"],
  ["UCUCUUUGUAUCUGUUCUCUU (ssRNA) [Ic_S1_P4E.1_K4.1_C4.1_H4.1_A4.1_[A6C]_F4.1_[T8G]_[A9T]_T4.1]", "N"],
  ["UCUCUUUGUAUAUUAUUCCUUCUCUU (ssRNA) [Ie_S1_P4E.1_K4.1_C4.1_H4.1_A4.1_F4.1_[+9TTCCT]_T4.1]", "Y"],
  ["UCUCUUUGUACCCAACUCUCUU (ssRNA) [Ic_S1_P5E.1_K5.1_C5.1_H5.1_A5.1_[T5C]_[T6C]_[A7C]_F5.1_[T8A]_[T9A]_[A10C]_T5.1]", "N"]
]}
